Reference source for all entries: paper PMC7366379

Biological target: T1, OmpF porin trimer (outer-membrane protein F) (Escherichia coli, UniProt P02931 23-362)
T1 sequence (looked up): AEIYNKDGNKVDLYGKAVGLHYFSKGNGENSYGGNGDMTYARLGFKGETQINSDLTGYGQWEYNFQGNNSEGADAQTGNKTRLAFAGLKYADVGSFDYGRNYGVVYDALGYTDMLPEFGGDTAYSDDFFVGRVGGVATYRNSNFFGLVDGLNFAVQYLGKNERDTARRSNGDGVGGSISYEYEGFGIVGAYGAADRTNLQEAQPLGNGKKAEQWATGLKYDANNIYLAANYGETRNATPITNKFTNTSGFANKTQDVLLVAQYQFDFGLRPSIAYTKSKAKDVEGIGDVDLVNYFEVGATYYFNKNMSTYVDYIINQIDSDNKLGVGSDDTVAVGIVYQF
Assay: single-channel electrical recording in planar lipid bilayer; single OmpF trimer in a DPhPC bilayer; free peptide added to the periplasmic (trans) side, positive potentials; constants of Table 1 extrapolated to 0 mV, Kd for a single OmpF subunit; 20 mM potassium phosphate pH 6.4, 0.1 M KCl, 20.5 °C
Settings: both partners purified
observation.type: Kd

Problem: GET /values?readout=Kd&item= H-SGGDGRGHNTGAHSTSG-NH2 [OBS1_(2-18) peptide (NH2-OBS1_(2-18)-CONH2)]
Solution: 13 µM
